testSystem: FLT3 D833Q (TKD) (Homo sapiens, UniProt P36888)
Sequence (P36888 610-943): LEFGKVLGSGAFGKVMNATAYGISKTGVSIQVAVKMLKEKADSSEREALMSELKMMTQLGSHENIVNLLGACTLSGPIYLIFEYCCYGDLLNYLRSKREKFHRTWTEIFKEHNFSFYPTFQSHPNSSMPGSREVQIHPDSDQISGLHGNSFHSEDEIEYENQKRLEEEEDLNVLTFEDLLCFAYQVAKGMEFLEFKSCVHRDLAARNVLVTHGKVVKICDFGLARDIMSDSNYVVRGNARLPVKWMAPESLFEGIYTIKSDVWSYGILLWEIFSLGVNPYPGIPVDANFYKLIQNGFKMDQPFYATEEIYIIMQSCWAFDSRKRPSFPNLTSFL
assayExplanation: DiscoverX KINOMEscan competition binding
measuredProperty: pKd
Notebook: values listed as pKd are -log10 of the concentration (mol/L).

Prompt: Under FLT3 D833Q (TKD) (Homo sapiens, UniProt P36888): report pKd of Cc1cnc(-c2ccc(-c3ccc(NC(=O)Nc4c(F)cc(F)cc4F)cc3F)c3c2C(=O)NC3)[nH]1 .
Response: 8.19

* * *

testSystem: FLT3 ITD/F691L (Homo sapiens, UniProt P36888, F691L/ITD)
assayExplanation: DiscoverX KINOMEscan competition binding
measuredProperty: Kd (nM)
Number only, in nM; omit the unit.

Prompt: Tell me its Kd given Cc1cnc(-c2ccc(-c3ccc(NC(=O)Nc4c(F)cc(F)cc4F)cc3F)c3c2C(=O)NC3)[nH]1 [luxeptinib, Luxeptinib] as the entry.
Response: 16

* * *

testSystem: FLT3-ITD (Homo sapiens, UniProt P36888)
assayExplanation: RBC enzymatic assay, ATP at Km
runParameters: FLT3-ITD; recombinant kinase with ATP concentration at the Km
measuredProperty: IC50 (nM)
Numbers only; they are read as nM.

Prompt: State measured IC50 of the compound Cc1cnc(-c2ccc(-c3ccc(NC(=O)Nc4c(F)cc(F)cc4F)cc3F)c3c2C(=O)NC3)[nH]1 with FLT3-ITD (Homo sapiens, UniProt P36888).
Response: 0.8

* * *

Target sequence: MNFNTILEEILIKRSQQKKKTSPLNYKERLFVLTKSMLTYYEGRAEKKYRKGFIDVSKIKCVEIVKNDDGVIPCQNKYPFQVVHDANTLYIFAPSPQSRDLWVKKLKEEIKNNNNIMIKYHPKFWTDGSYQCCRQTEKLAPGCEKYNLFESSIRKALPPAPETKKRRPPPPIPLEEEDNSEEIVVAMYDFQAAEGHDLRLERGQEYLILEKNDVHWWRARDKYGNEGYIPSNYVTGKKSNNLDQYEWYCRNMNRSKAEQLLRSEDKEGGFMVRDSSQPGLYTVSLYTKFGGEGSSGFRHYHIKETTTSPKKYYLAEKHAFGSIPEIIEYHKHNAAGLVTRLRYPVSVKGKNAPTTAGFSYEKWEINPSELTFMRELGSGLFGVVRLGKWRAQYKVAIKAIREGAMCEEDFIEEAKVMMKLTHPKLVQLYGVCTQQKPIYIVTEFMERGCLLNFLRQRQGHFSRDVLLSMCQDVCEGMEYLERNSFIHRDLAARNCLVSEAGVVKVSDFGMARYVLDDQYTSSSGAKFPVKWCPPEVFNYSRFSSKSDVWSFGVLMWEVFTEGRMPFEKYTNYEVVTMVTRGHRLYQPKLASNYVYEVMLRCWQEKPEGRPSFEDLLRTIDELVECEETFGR
measuredProperty: pIC50
The meaning of pIC50 here: minus log10 of the concentration in molar units.

Prompt: Write down pIC50 measured for item Cc1cnc(-c2ccc(-c3ccc(NC(=O)Nc4c(F)cc(F)cc4F)cc3F)c3c2C(=O)NC3)[nH]1
Response: 6.86

* * *

testSystem: FLT3– ITD (Homo sapiens, UniProt P36888, ITD)
Sequence (P36888 564-993): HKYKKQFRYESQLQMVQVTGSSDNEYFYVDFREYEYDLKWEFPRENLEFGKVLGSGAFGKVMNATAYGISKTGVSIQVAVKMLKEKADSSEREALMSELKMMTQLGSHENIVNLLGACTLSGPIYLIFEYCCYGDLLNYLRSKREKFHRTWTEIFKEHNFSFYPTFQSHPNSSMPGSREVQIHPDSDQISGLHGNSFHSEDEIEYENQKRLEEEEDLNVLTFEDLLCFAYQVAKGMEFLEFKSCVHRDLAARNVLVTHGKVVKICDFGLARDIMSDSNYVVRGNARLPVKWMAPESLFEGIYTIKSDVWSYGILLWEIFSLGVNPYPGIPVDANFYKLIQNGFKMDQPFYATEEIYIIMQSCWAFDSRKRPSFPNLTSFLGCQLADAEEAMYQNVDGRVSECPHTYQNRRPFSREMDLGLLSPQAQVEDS
assayExplanation: DiscoverX KINOMEscan competition binding
measuredProperty: Kd (nM)
I only need the number, in nM, no unit after it.

Prompt: Return the recorded Kd value; entry: Cc1cnc(-c2ccc(-c3ccc(NC(=O)Nc4c(F)cc(F)cc4F)cc3F)c3c2C(=O)NC3)[nH]1 [luxeptinib, Luxeptinib]
Response: 3.1

* * *

Test system: HEL92.1.7
assayExplanation: Antiproliferative assay
Assay type: cell-based
runParameters: Homo sapiens, HEL 92.1.7, 72 h, read-out: Mean IC50
measuredProperty: pIC50
Kindly note that pIC50 refers to -log10 of the concentration in mol/L and answer with the value alone.

Prompt: Please indicate pIC50 recorded for Cc1cnc(-c2ccc(-c3ccc(NC(=O)Nc4c(F)cc(F)cc4F)cc3F)c3c2C(=O)NC3)[nH]1
Response: 5.33

* * *

pIC50: −log10 of the molar value.
measuredProperty: pIC50

Prompt: Write pIC50 of Cc1cnc(-c2ccc(-c3ccc(NC(=O)Nc4c(F)cc(F)cc4F)cc3F)c3c2C(=O)NC3)[nH]1 ; system used: ERBB (Homo sapiens, UniProt P04626)
Sequence (P04626 23-1255): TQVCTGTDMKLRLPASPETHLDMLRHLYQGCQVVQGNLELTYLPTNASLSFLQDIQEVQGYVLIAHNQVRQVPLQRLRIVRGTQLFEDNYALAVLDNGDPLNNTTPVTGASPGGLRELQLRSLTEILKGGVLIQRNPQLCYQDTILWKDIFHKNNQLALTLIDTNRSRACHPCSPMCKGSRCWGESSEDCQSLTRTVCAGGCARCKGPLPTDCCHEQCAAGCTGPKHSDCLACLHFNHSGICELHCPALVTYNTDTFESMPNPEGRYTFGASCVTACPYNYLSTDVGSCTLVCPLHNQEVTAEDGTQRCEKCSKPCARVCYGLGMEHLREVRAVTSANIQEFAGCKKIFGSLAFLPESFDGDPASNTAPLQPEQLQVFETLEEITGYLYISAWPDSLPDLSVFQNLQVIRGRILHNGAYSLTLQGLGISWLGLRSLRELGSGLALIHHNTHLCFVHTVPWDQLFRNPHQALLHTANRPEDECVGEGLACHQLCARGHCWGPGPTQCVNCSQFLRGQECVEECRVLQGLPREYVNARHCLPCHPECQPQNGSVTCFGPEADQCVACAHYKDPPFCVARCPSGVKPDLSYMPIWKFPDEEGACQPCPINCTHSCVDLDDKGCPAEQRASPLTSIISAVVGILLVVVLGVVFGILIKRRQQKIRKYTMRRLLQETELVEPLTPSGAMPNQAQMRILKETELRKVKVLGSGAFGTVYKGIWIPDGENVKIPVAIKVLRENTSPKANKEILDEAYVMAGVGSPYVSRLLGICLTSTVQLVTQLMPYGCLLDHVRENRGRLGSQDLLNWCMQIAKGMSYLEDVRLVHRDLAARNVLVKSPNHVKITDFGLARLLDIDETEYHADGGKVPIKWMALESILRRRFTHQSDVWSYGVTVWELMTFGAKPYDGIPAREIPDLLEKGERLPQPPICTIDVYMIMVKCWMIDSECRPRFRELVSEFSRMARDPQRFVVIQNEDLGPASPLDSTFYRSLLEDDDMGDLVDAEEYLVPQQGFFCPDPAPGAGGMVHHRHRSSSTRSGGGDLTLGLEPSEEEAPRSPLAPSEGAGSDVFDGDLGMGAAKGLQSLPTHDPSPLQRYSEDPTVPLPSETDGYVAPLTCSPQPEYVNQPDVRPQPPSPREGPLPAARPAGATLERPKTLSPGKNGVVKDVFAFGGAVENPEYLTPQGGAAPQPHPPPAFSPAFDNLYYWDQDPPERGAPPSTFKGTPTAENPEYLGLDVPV
Response: < 6.00
